TARGET UNDER TEST: DNA topoisomerase 2-alpha (Homo sapiens) (UniProt P11388)
Sequence (P11388 whole entry): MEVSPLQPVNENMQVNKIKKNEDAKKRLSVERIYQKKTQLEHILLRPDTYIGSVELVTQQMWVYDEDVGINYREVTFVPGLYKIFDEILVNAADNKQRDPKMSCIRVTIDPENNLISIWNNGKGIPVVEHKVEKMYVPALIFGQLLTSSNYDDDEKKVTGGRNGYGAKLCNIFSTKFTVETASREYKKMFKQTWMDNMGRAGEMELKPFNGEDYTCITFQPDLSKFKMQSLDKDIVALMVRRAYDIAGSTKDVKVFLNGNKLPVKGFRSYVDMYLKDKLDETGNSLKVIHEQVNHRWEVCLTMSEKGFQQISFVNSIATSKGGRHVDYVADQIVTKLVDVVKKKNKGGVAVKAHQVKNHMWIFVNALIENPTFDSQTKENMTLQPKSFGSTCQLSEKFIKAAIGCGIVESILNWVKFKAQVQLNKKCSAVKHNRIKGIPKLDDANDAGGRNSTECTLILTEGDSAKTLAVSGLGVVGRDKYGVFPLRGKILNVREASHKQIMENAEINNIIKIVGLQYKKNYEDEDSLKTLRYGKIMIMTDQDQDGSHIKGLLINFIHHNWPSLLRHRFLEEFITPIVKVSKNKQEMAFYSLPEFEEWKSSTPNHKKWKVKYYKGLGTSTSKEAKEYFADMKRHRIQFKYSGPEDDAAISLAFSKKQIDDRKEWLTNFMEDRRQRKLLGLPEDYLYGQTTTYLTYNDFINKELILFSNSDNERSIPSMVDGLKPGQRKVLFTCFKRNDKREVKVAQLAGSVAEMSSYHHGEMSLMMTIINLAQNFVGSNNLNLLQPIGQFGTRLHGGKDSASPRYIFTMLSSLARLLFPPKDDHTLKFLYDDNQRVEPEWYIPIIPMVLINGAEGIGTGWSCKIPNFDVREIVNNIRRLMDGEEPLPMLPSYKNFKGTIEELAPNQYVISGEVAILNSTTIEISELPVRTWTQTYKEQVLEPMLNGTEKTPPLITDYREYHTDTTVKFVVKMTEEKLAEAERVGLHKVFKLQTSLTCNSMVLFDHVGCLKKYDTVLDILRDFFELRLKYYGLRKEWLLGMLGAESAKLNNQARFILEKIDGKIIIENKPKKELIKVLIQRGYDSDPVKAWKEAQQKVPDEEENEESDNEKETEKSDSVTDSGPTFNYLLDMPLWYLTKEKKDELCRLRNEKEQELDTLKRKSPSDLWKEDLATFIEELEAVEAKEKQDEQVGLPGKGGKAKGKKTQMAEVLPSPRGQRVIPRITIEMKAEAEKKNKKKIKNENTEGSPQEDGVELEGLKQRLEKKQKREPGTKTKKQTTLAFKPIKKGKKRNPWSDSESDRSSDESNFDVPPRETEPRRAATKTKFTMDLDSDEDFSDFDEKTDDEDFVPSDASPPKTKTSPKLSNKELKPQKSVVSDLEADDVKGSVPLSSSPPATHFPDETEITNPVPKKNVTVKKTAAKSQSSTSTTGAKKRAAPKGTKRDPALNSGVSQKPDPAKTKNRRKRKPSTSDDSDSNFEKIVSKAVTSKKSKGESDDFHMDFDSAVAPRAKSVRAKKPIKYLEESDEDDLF
ASSAY DETAILS: Inhibition of topoisomerase 2alpha (unknown origin) assessed as relaxation of supercoiled plasmid pBR322 DNA at 20 uM relative to control
ATTRIBUTE MEASURED: inhibition (%)

Use these answered entries as a reference point.
Oc1cccc(-c2cc(-c3ccccc3F)cc(-c3cccc(O)c3)n2)c1    10.8
Oc1ccc(-c2cc(-c3ccc(F)cc3)cc(-c3cccc(O)c3)n2)cc1    30.4
Oc1ccc(-c2cc(-c3cccc(OC(F)(F)F)c3)cc(-c3cccc(O)c3)n2)cc1    7.4
Oc1ccc(-c2cc(-c3ccccc3F)cc(-c3cccc(O)c3)n2)cc1    42.1
Oc1ccc(-c2cc(-c3cccc(F)c3)cc(-c3cccc(O)c3)n2)cc1    36.1
Oc1ccc(-c2cc(-c3ccccc3OC(F)(F)F)cc(-c3ccc(O)cc3)n2)cc1    4.3

(1) Oc1ccc(-c2cc(-c3ccccc3OC(F)(F)F)cc(-c3cccc(O)c3)n2)cc1
(2) Oc1ccc(-c2cc(-c3ccc(OC(F)(F)F)cc3)cc(-c3ccc(O)cc3)n2)cc1
(3) Oc1ccc(-c2cc(-c3ccccc3C(F)(F)F)cc(-c3cccc(O)c3)n2)cc1
(4) Oc1ccc(-c2cc(-c3ccc(F)cc3)cc(-c3ccc(O)cc3)n2)cc1
Ranking field: inhibition; order: falling. Output spec: a listing of the labels in the requested order.
4, 2, 1, 3

###

TARGET UNDER TEST: DNA topoisomerase 2-alpha (Homo sapiens) (UniProt P11388)
ASSAY DETAILS: Inhibition of topoisomerase 2alpha (unknown origin) assessed as relaxation of supercoiled plasmid pBR322 DNA at 100 uM relative to control
ATTRIBUTE MEASURED: inhibition (%)

Use these answered entries as a reference point.
Oc1ccc(-c2cc(-c3ccc(C(F)(F)F)cc3)cc(-c3ccccc3O)n2)cc1    0.1
Oc1ccc(-c2cc(-c3ccc(F)cc3)cc(-c3ccccc3O)n2)cc1    0

(P) Oc1ccc(-c2cc(-c3cccc(OC(F)(F)F)c3)cc(-c3ccc(O)cc3)n2)cc1
(Q) Oc1ccccc1-c1cc(-c2ccc(C(F)(F)F)cc2)cc(-c2ccccc2O)n1
Param pair: P , Q . Output: the one whose inhibition is numerically greater. Indicate which entry you chose by stating its label.
P

###

TARGET UNDER TEST: DNA topoisomerase 2-alpha (Homo sapiens) (UniProt P11388)
ASSAY DETAILS: Inhibition of topoisomerase 2alpha (unknown origin) assessed as relaxation of supercoiled plasmid pBR322 DNA at 20 uM relative to control
ATTRIBUTE MEASURED: inhibition (%)

Oc1ccc(-c2cc(-c3ccc(C(F)(F)F)cc3)cc(-c3cccc(O)c3)n2)cc1    4.1
Oc1cccc(-c2cc(-c3ccc(F)cc3)cc(-c3cccc(O)c3)n2)c1    4.9

(a) COc1cc([C@@H]2c3cc4c(cc3[C@@H](O[C@@H]3O[C@@H]5CO[C@@H](C)O[C@H]5[C@H](O)[C@H]3O)[C@H]3COC(=O)[C@H]23)OCO4)cc(OC)c1O [ETOPOSIDE]
(b) Oc1cccc(-c2cc(-c3ccccc3OC(F)(F)F)cc(-c3cccc(O)c3)n2)c1
Compare reported inhibition values for a and b . Which is lower? Indicate which entry you chose by stating its label.
b
(b: 6.7%, a: 21.2%)

###

Test system: HeLa
ASSAY DETAILS: Antiproliferative activity against human HeLa cells assessed as inhibition of cell proliferation
Type: functional, cell-based
Where a name gives a salt, the structure may show the parent alone.
ATTRIBUTE MEASURED: IC50 (µM)

Oc1cccc(-c2cc(-c3ccccc3C(F)(F)F)cc(-c3ccccc3O)n2)c1    16.8
Oc1cccc(-c2cc(-c3ccccc3C(F)(F)F)cc(-c3cccc(O)c3)n2)c1    15.2
Oc1ccc(-c2cc(-c3ccccc3OC(F)(F)F)cc(-c3cccc(O)c3)n2)cc1    5.8
COc1cc([C@@H]2c3cc4c(cc3[C@@H](O[C@@H]3O[C@@H]5CO[C@@H](C)O[C@H]5[C@H](O)[C@H]3O)[C@H]3COC(=O)[C@H]23)OCO4)cc(OC)c1O [ETOPOSIDE]    7.01
Oc1cccc(-c2cc(-c3ccccc3F)cc(-c3cccc(O)c3)n2)c1    16

(1) Oc1cccc(-c2cc(-c3ccccc3OC(F)(F)F)cc(-c3ccccc3O)n2)c1
(2) COc1cccc2c1C(=O)c1c(O)c3c(c(O)c1C2=O)C[C@@](O)(C(=O)CO)C[C@@H]3O[C@H]1C[C@H](N)[C@H](O)[C@H](C)O1 [DOXORUBICIN HYDROCHLORIDE]
(3) Oc1ccc(-c2cc(-c3ccc(OC(F)(F)F)cc3)cc(-c3cccc(O)c3)n2)cc1
Ranking field: IC50; order: falling. Output spec: a listing of the labels in the requested order.
3, 1, 2

###

TARGET UNDER TEST: DNA topoisomerase 2-alpha (Homo sapiens) (UniProt P11388)
ASSAY DETAILS: Inhibition of topoisomerase 2alpha (unknown origin) assessed as relaxation of supercoiled plasmid pBR322 DNA at 100 uM relative to control
ATTRIBUTE MEASURED: inhibition (%)

Use these answered entries as a reference point.
Oc1ccccc1-c1cc(-c2ccccc2OC(F)(F)F)cc(-c2ccccc2O)n1    12.5
Oc1ccccc1-c1cc(-c2ccccc2C(F)(F)F)cc(-c2ccccc2O)n1    0
Oc1ccc(-c2cc(-c3cccc(OC(F)(F)F)c3)cc(-c3cccc(O)c3)n2)cc1    43.4
Oc1cccc(-c2cc(-c3ccccc3OC(F)(F)F)cc(-c3ccccc3O)n2)c1    0
Oc1cccc(-c2cc(-c3cccc(OC(F)(F)F)c3)cc(-c3cccc(O)c3)n2)c1    5.7

(I) Oc1ccc(-c2cc(-c3cccc(F)c3)cc(-c3ccccc3O)n2)cc1
(II) Oc1ccc(-c2cc(-c3ccccc3F)cc(-c3ccccc3O)n2)cc1
(III) Oc1ccccc1-c1cc(-c2ccc(F)cc2)cc(-c2ccccc2O)n1
(IV) Oc1ccc(-c2cc(-c3ccccc3OC(F)(F)F)cc(-c3ccc(O)cc3)n2)cc1
(V) Oc1ccc(-c2cc(-c3ccc(OC(F)(F)F)cc3)cc(-c3cccc(O)c3)n2)cc1
Ranking field: inhibition; order: falling. Output spec: a listing of the labels in the requested order.
IV, I, III, V, II

###

TARGET UNDER TEST: DNA topoisomerase 2-alpha (Homo sapiens) (UniProt P11388)
ASSAY DETAILS: Inhibition of topoisomerase 2alpha (unknown origin) assessed as relaxation of supercoiled plasmid pBR322 DNA at 100 uM relative to control
ATTRIBUTE MEASURED: inhibition (%)

Oc1cccc(-c2cc(-c3ccccc3F)cc(-c3ccccc3O)n2)c1    1
Oc1ccccc1-c1cc(-c2ccccc2F)cc(-c2ccccc2O)n1    10.3
Oc1ccc(-c2cc(-c3cccc(F)c3)cc(-c3ccc(O)cc3)n2)cc1    0
Oc1ccc(-c2cc(-c3cccc(OC(F)(F)F)c3)cc(-c3ccccc3O)n2)cc1    0
Oc1ccc(-c2cc(-c3cccc(C(F)(F)F)c3)cc(-c3cccc(O)c3)n2)cc1    28

(P) Oc1cccc(-c2cc(-c3ccc(C(F)(F)F)cc3)cc(-c3cccc(O)c3)n2)c1
(Q) Oc1cccc(-c2cc(-c3ccc(OC(F)(F)F)cc3)cc(-c3ccccc3O)n2)c1
Compare reported inhibition values for P and Q . Which is lower? Indicate which entry you chose by stating its label.
Q

###

TARGET UNDER TEST: DNA topoisomerase 2-alpha (Homo sapiens) (UniProt P11388)
ASSAY DETAILS: Inhibition of topoisomerase 2alpha (unknown origin) assessed as relaxation of supercoiled plasmid pBR322 DNA at 100 uM relative to control
ATTRIBUTE MEASURED: inhibition (%)

Oc1ccc(-c2cc(-c3ccc(C(F)(F)F)cc3)cc(-c3cccc(O)c3)n2)cc1    44.1
Oc1ccccc1-c1cc(-c2cccc(F)c2)cc(-c2ccccc2O)n1    0
Oc1cccc(-c2cc(-c3ccccc3F)cc(-c3cccc(O)c3)n2)c1    31.1
Oc1ccc(-c2cc(-c3ccc(F)cc3)cc(-c3cccc(O)c3)n2)cc1    43.7
Oc1ccc(-c2cc(-c3ccccc3C(F)(F)F)cc(-c3ccccc3O)n2)cc1    0
Oc1cccc(-c2cc(-c3ccccc3C(F)(F)F)cc(-c3cccc(O)c3)n2)c1    34
Oc1cccc(-c2cc(-c3ccc(OC(F)(F)F)cc3)cc(-c3cccc(O)c3)n2)c1    6
Oc1cccc(-c2cc(-c3ccc(F)cc3)cc(-c3cccc(O)c3)n2)c1    36.6

(I) Oc1ccc(-c2cc(-c3cccc(F)c3)cc(-c3cccc(O)c3)n2)cc1
(II) Oc1cccc(-c2cc(-c3cccc(OC(F)(F)F)c3)cc(-c3ccccc3O)n2)c1
Param pair: I , II . Output: the one whose inhibition is numerically greater. Indicate which entry you chose by stating its label.
I

(P) Oc1ccc(-c2cc(-c3ccc(OC(F)(F)F)cc3)cc(-c3ccccc3O)n2)cc1
(Q) Oc1cccc(-c2cc(-c3cccc(F)c3)cc(-c3ccccc3O)n2)c1
(R) Oc1cccc(-c2cc(-c3ccc(C(F)(F)F)cc3)cc(-c3ccccc3O)n2)c1
(S) Oc1ccc(-c2cc(-c3cccc(C(F)(F)F)c3)cc(-c3ccccc3O)n2)cc1
(T) Oc1ccc(-c2cc(-c3ccccc3C(F)(F)F)cc(-c3cccc(O)c3)n2)cc1
Ranking field: inhibition; order: falling. Output spec: a listing of the labels in the requested order.
T, Q, R, S, P

meta.source: ChEMBL document CHEMBL5131481
